Data origin, for the record: ChEMBL document CHEMBL3232774

Reported pEC50 is given for each of the following compounds.
# target of assay: Broad substrate specificity ATP-binding cassette transporter ABCG2 (Homo sapiens)
# Sequence (Q9UNQ0 whole entry): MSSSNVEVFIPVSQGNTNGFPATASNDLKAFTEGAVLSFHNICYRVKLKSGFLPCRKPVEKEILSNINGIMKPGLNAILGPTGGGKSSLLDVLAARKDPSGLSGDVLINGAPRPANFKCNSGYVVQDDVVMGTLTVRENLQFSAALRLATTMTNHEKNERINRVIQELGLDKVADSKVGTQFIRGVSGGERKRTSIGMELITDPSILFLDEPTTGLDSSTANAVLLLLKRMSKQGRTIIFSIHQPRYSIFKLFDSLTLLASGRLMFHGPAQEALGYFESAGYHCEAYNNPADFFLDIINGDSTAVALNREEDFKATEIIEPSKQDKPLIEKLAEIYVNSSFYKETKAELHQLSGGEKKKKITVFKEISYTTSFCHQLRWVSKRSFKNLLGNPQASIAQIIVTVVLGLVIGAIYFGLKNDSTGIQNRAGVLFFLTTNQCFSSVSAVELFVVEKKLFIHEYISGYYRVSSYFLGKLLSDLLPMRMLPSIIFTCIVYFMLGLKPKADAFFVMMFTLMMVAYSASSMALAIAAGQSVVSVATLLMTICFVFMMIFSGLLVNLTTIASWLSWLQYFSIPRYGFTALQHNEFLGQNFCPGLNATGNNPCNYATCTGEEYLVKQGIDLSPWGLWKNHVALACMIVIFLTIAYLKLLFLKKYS
# method: Inhibition of ABCG2 (unknown origin) transfected in HEK293 cells assessed as inhibition of mitoxantrone efflux after 30 mins by flow cytometry relative to control
# Assay type: cell-based
// returns pEC50 (minus log10 of molar concentration), number only

COc1ccc(/C=C/C(=O)c2ccc(C(=O)/C=C/c3ccc(OC)c(OC)c3)cc2)cc1OC
5.68
COc1cc(OC)cc(C(=O)/C=C/c2ccc(/C=C/C(=O)c3cc(OC)cc(OC)c3)cc2)c1
6.30
COc1ccccc1C(=O)/C=C/c1ccc(/C=C/C(=O)c2ccccc2OC)cc1
5.96
COc1cccc(C(=O)/C=C/c2ccc(/C=C/C(=O)c3cccc(OC)c3)cc2)c1
5.64
COc1cc(OC)c(C(=O)/C=C/c2ccc(/C=C/C(=O)c3c(OC)cc(OC)cc3OC)cc2)c(OC)c1
5.74
COc1ccc2[nH]cc(CCNC(=O)c3cc(=O)c4c(OCc5ccc(Br)cc5)cccc4o3)c2c1
7.03
COc1ccc(C(=O)/C=C/c2ccc(/C=C/C(=O)c3ccc(OC)cc3OC)cc2)c(OC)c1
6.05
COc1cc(C(=O)/C=C/c2ccc(/C=C/C(=O)c3cc(OC)c(OC)c(OC)c3)cc2)cc(OC)c1OC
5.96

Proceed to the following item.
Give recorded pEC50. COc1ccc(OC)c(/C=C/C(=O)c2ccc(C(=O)/C=C/c3cc(OC)ccc3OC)cc2)c1
6.15
